Data origin: patent US7598417B2

measurement target: alpha2B receptor (Homo sapiens, UniProt P18089)
Construct: expressed in transfected cells; host or cells: NIH-3T3
Sequence (P18089 1-450): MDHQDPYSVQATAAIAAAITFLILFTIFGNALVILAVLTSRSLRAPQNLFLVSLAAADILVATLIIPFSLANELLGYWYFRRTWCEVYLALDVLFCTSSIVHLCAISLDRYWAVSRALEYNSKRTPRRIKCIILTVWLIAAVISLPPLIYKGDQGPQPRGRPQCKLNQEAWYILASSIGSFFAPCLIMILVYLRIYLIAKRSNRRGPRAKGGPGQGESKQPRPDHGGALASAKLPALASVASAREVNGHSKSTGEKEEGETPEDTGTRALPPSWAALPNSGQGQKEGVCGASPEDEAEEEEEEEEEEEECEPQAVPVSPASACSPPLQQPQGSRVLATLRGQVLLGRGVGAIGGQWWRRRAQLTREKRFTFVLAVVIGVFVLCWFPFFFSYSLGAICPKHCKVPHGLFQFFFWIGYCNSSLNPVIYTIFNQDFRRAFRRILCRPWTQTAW
assay text: Receptor Selection and Amplification Technology (RSAT) assay, alpha2B
Type: cell-based
experimental setup: ratio of maximal effect of the drug to maximal effect of standard full agonist brimonidine (UK14304)
Method: Receptor Selection and Amplification Technology (RSAT) Assay The RSAT assay measures a receptor-mediated loss of contact inhibition that results in selective proliferation of receptor-containing cells in a mixed population of confluent cells. The increase in cell number is assessed with an appropriate transfected marker gene such as β-galactosidase, the activity of which can be easily measured in a 96-well format. Receptors that activate the G protein, Gq, elicit this response. […]
Consider the following compounds; for each one, report its Alpha 2B IA (intrinsic activity).
One number for each entry.

Worked set:
• Cc1ccc2c(c1C)C(NC(=O)NCCF)CC2 (centres unmarked) = 0.64
• O=C(NCCF)NC1CCc2cccnc21 (centres unmarked) = 0.81

Could you tell me Alpha 2B IA (intrinsic activity) for each of these compounds? They are listed below.
1. COc1cccc2c1C(NC(=O)NCCF)CC2 (centres unmarked)
2. Cc1cc(C)c2c(c1)C(NC(=O)NCCF)CCC2 (centres unmarked)

Ans:
1: 0.63; 2: 0.91

Could you tell me Alpha 2B IA (intrinsic activity) for each of these compounds? They are listed below.
1. O=C(NCCF)NC1CCc2ccc(F)cc21 (centres unmarked)
2. CCc1cccc2c1CCC2NC(=O)NCCF (centres unmarked)

Ans:
[0.54, 0.99]

====

measurement target: alpha2A receptor (Homo sapiens, UniProt P08913)
Construct: expressed in transfected cells; host or cells: NIH-3T3
Sequence (P08913 whole entry): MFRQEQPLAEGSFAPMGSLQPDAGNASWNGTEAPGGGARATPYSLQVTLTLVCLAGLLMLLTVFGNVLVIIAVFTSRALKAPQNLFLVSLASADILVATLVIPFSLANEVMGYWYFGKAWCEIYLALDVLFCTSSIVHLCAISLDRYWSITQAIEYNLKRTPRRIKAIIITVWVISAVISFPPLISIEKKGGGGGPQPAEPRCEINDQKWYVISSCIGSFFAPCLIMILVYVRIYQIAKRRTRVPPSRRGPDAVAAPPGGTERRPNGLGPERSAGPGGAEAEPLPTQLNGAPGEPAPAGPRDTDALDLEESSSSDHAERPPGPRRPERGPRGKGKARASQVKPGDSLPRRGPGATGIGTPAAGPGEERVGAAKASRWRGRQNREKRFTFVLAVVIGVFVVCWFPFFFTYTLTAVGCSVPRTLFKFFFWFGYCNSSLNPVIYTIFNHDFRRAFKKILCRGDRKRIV
assay text: Receptor Selection and Amplification Technology (RSAT) assay, alpha2A
Format: cell-based
experimental setup: RSAT, NIH-3T3 cells cotransfected with receptor and Gq/i5; not active = not active at concentrations less than 10 micromolar; read-out: Alpha 2A EC50
Would you mind telling me the reported EC50 of each entry?
Give bare numbers, in nM.

* Cc1cc(C)c2c(c1)C(NC(=O)NCCF)CCC2 (centres unmarked) | 109
* O=C(NCCF)NC1CCc2c(Cl)cccc21 (centres unmarked) | 34.9
* Nc1cccc2c1CCC2NC(=O)NCCF (centres unmarked) | 429
* Cc1cccc2c1C(NC(=O)NCCF)CC2 (centres unmarked) | 189
* O=C(NCCF)NC1CCc2ncccc21 (centres unmarked) | 2550

Would you mind listing EC50 for each of the following molecules?
1. CC1=C(C)C(NC(=O)NCCF)CC1 (centres unmarked)
2. O=C(NCCF)N[C@@H]1CCc2ccccc21
3. O=C(NCCF)NC1CCCc2c(Cl)cccc21 (centres unmarked)
4. Cc1cccc2c1CCCC2NC(=O)NCCF (centres unmarked)
5. O=C(NCCF)NC1CCCc2c(F)cccc21 (centres unmarked)
6. CCc1cccc2c1CCCC2NC(=O)NCCF (centres unmarked)

Ans:
[586, 693, 168, 48, 68.3, 450]

Please state EC50 for every molecule in the list that follows.
1. O=C(NCCF)NC1CCc2c(F)cccc21 (centres unmarked)
2. O=C(NCCF)NC1CCc2ccc(Cl)cc21 (centres unmarked)
3. O=C(NCCF)NC1CCCCc2ccccc21 (centres unmarked)
4. O=C(NCCF)NC1CCc2c(OC(=O)c3ccccc3)cccc21 (centres unmarked)
5. O=C(NCCF)NC1CCc2cccc(Br)c21 (centres unmarked)
6. O=C(NCCF)NC1CCCc2c(Br)cccc21 (centres unmarked)

Ans:
[130, 343, 534, 95, 111, 146]

Look up EC50 for the entries below, preserving their order.
1. COc1cccc2c1CCCC2NC(=O)NCCF (centres unmarked)
2. O=C(NCCF)NC1CCc2c(O)cccc21 (centres unmarked)

Ans:
1: 2350; 2: 186
